experimental-context: PB pH 6.6, 37 °C
assay-endpoint: time for ester bond hydrolysis (h)

1) CC[C@@H](N)C(=O)O[C@]1(CC)C(=O)OCc2c1cc1n(c2=O)Cc2cc3ccccc3nc2-1 [Prodrug 2c]    120
2) CC[C@@]1(OC(=O)[C@@H](C)N)C(=O)OCc2c1cc1n(c2=O)Cc2cc3ccccc3nc2-1 [Prodrug 2b]    96
3) CCC[C@@H](N)C(=O)O[C@]1(CC)C(=O)OCc2c1cc1n(c2=O)Cc2cc3ccccc3nc2-1 [Prodrug 2d]    144

---

Reported time for ester bond hydrolysis values for the following compounds.
experimental-context: PB pH 7.4, 37 °C
assay-endpoint: time for ester bond hydrolysis

1) CC[C@@]1(OC(=O)[C@@H](C)N)C(=O)OCc2c1cc1n(c2=O)Cc2cc3ccccc3nc2-1 [Prodrug 2b]    ≤ 72 h
2) CCC[C@@H](N)C(=O)O[C@]1(CC)C(=O)OCc2c1cc1n(c2=O)Cc2cc3ccccc3nc2-1 [Prodrug 2d]    ≤ 120 h
3) CC[C@@H](N)C(=O)O[C@]1(CC)C(=O)OCc2c1cc1n(c2=O)Cc2cc3ccccc3nc2-1 [Prodrug 2c]    ≤ 96 h
4) CC[C@@]1(OC(=O)CN)C(=O)OCc2c1cc1n(c2=O)Cc2cc3ccccc3nc2-1 [Prodrug 2a]    ≤ 72 h
